Target: USP7 (Homo sapiens)
Construct: full length human USP7 protein
Sequence (Q93009 whole entry): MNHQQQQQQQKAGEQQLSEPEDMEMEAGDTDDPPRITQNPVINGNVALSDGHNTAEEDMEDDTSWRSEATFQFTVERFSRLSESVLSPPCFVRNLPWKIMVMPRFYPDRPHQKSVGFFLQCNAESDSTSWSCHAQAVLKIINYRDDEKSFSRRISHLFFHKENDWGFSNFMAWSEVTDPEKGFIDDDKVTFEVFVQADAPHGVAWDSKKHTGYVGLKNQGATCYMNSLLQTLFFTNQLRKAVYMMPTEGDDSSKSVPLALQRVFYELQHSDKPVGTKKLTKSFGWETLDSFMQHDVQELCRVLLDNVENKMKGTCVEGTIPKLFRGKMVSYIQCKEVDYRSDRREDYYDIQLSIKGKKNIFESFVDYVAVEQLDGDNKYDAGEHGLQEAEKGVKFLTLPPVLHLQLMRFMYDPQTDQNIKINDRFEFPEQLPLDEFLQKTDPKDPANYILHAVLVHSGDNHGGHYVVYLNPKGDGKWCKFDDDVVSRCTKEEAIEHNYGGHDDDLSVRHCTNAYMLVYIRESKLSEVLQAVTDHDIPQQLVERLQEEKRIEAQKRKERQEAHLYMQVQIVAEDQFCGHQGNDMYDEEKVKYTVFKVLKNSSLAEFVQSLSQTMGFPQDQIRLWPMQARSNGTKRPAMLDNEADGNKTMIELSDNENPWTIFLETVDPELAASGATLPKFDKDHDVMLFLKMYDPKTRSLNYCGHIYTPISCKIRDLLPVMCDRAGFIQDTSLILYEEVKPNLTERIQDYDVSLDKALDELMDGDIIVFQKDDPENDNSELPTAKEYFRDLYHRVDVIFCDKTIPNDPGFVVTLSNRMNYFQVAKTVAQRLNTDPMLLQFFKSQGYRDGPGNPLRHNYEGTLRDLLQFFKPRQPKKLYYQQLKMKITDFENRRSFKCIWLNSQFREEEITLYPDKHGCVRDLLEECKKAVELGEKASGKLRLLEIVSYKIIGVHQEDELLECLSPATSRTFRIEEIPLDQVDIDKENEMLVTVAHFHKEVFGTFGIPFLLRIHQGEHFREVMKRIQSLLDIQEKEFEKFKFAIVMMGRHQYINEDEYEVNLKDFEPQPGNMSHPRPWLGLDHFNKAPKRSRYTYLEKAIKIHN
Experiment: USP7, Ub-PLA2 assay
Conditions: Ub-PLA2 / NBD C6-HPC fluorescence, 30 minute preincubation; read-out: EC50 for inhibition of USP7
assay metric: EC50

                                    compound               val
 0    O=[N+]([O-])c1cc(Br)sc1Sc1ccc(Cl)cc1Cl        > 10000 nM
 1  O=C(NCCN1CCN(Cc2ccccc2)CC1)c1cc([N+](=O)[O-])c(Sc2c(Cl)cncc2Cl)s1         ≤ 1000 nM
 2  COCCCNC(=O)CNC(=O)c1cc([N+](=O)[O-])c(Sc2c(Cl)cncc2Cl)s1  1000 to 10000 nM
 3  O=C(NCC(O)CN1CCCCC1)c1cc([N+](=O)[O-])c(Sc2c(Cl)cncc2Cl)s1 (centres unmarked)  1000 to 10000 nM
 4  O=C(NCC(=O)N1CCC(F)CC1)c1cc([N+](=O)[O-])c(Sc2c(Cl)cncc2Cl)s1  1000 to 10000 nM
 5  CC(=O)c1cc([N+](=O)[O-])c(Sc2c(Cl)c[n+]([O-])cc2Cl)s1  1000 to 10000 nM
 6  CN(C)CCOc1ccc(NC(=O)c2cc([N+](=O)[O-])c(Sc3c(Cl)cncc3Cl)s2)cc1         ≤ 1000 nM
 7  O=C(NC1C2CC3CC(C2)CC1C3)c1cc([N+](=O)[O-])c(Sc2c(Cl)cncc2Cl)s1 (centres unmarked)  1000 to 10000 nM
 8  CN(C)c1cccc(CNC(=O)c2cc([N+](=O)[O-])c(Sc3c(Cl)cncc3Cl)s2)c1         ≤ 1000 nM
 9  O=C(Nc1ccc(N2CCOCC2)cc1)c1cc([N+](=O)[O-])c(Sc2c(Cl)cncc2Cl)s1         ≤ 1000 nM
10  CC(C)CCNC(=O)c1cc([N+](=O)[O-])c(Sc2c(Cl)cncc2Cl)s1         ≤ 1000 nM
11  O=C(Nc1cc(C(F)(F)F)n[nH]1)c1cc([N+](=O)[O-])c(Sc2c(Cl)cncc2Cl)s1         ≤ 1000 nM
12  O=C(Nc1cccc2cccnc12)c1cc([N+](=O)[O-])c(Sc2c(Cl)cncc2Cl)s1        > 10000 nM
13  O=C(Nc1cccc2cnccc12)c1cc([N+](=O)[O-])c(Sc2c(Cl)cncc2Cl)s1         ≤ 1000 nM
14  O=C(Nc1ccc(F)cc1C(F)(F)F)c1cc([N+](=O)[O-])c(Sc2c(Cl)cncc2Cl)s1         ≤ 1000 nM
15  CC1(C)CCN(CCCNC(=O)c2cc([N+](=O)[O-])c(Sc3c(Cl)cncc3Cl)s2)CC1         ≤ 1000 nM
16  CSc1cccc(CN(C)C(=O)c2cc([N+](=O)[O-])c(Sc3c(Cl)cncc3Cl)s2)c1         ≤ 1000 nM
17  CC(=O)N1CCC(NC(=O)c2cc([N+](=O)[O-])c(Sc3c(Cl)cncc3Cl)s2)C1 (centres unmarked)  1000 to 10000 nM
18  CCOc1cccc(CNC(=O)c2cc([N+](=O)[O-])c(Sc3c(Cl)cncc3Cl)s2)c1         ≤ 1000 nM
19  CN(C)CCC(NC(=O)c1cc([N+](=O)[O-])c(Sc2nc3ccccc3s2)s1)c1ccccc1 (centres unmarked)  1000 to 10000 nM
20  COc1ccc(NC(=O)c2cc([N+](=O)[O-])c(Sc3c(Cl)cncc3Cl)s2)cc1         ≤ 1000 nM
21       CC(=O)c1cc(C#N)c(Sc2ccc(Cl)cc2Cl)s1        > 10000 nM
22  O=C(NCCc1ccccc1)c1cc([N+](=O)[O-])c(Sc2c(Cl)cncc2Cl)s1         ≤ 1000 nM
23  O=C(NCc1ccc2c(c1)OCCO2)c1cc([N+](=O)[O-])c(Sc2c(Cl)cncc2Cl)s1         ≤ 1000 nM
24  CCN1C[C@H](NC(=O)c2cc([N+](=O)[O-])c(Sc3c(Cl)cncc3Cl)s2)[C@@H](OC)C1  1000 to 10000 nM
25  O=C(c1cccc([N+](=O)[O-])c1)c1cc([N+](=O)[O-])c(Sc2ccc(Cl)cc2Cl)s1        > 10000 nM
26  CC(=O)c1cc([N+](=O)[O-])c(Oc2ccc(Cl)cc2Cl)s1  1000 to 10000 nM
27  Cn1nccc1NC(=O)c1cc([N+](=O)[O-])c(Sc2c(Cl)cncc2Cl)s1         ≤ 1000 nM
28  O=C(NCc1ccc2c(c1)OCO2)c1cc([N+](=O)[O-])c(Sc2c(Cl)cncc2Cl)s1         ≤ 1000 nM
29  CS(=O)(=O)c1ccc(NC(=O)c2cc(C#N)c(Sc3c(Cl)cncc3Cl)s2)cc1         ≤ 1000 nM
30  CN1CCC(NC(=O)c2cc([N+](=O)[O-])c(Sc3ccc(Cl)cc3Cl)s2)CC1  1000 to 10000 nM
31  O=C(NCc1cccc(Cl)c1)c1cc([N+](=O)[O-])c(Sc2c(Cl)cncc2Cl)s1  1000 to 10000 nM
